These data points were gathered from patent US20240262812A1.

# TARGET_OR_SYSTEM: mTRPA1 (Mus musculus)
# Sequence (Q8BLA8 whole entry): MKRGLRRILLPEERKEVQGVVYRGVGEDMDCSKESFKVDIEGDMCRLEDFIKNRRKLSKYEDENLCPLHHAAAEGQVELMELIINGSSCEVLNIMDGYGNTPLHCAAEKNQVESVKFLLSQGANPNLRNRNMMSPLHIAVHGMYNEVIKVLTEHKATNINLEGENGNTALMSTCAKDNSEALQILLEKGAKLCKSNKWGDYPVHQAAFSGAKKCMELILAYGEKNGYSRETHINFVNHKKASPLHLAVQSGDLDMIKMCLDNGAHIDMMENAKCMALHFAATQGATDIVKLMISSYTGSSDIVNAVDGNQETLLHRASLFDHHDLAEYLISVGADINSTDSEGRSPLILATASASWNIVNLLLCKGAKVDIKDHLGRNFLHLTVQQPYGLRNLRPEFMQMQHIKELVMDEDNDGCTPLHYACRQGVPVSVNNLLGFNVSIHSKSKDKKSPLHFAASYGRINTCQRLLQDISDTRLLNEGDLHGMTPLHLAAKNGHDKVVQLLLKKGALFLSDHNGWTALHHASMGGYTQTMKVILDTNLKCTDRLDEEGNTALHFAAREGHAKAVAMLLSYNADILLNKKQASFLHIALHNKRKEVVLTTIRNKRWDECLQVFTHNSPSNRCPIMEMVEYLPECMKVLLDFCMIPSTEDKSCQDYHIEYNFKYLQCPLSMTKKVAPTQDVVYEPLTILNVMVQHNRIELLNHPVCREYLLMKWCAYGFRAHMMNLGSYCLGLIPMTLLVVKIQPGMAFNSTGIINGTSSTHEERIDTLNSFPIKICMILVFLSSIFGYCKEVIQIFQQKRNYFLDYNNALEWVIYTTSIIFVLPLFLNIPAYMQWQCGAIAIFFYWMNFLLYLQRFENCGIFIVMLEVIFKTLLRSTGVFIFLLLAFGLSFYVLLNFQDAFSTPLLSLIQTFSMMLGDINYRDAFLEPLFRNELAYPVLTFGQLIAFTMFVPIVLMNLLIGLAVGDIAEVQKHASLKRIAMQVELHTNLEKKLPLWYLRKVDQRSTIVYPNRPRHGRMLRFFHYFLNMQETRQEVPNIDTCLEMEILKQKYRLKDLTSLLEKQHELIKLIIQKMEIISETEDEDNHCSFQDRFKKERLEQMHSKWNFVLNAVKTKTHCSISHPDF
# PROCEDURE_DETAILS: IonWorks Barracuda (IWB) automated patch clamp, TRPA1 inhibitory activity
# CONDITION_CONTEXT: HEK293 cells stably expressing mTRPA1, current induced by AITC, amplitude at +100 mV; read-out: IC50 (inhibition activity on TRPA1)
Parameter IC50: see the listing below.
MEASURED_PARAMETER: IC50

>>> df
                                    compound       target_or_system        result
 0  CNCc1ccc(-c2ccco2)c(NS(=O)(=O)c2cccs2)c1 [IA-20]  mTRPA1 (Mus musculus)     1 to 5 µM
 1  NC(c1ccc(NS(=O)(=O)c2ccccc2)c(-c2ccco2)c1)C1CC1 (centres unmarked) [IU-6]  mTRPA1 (Mus musculus)        < 1 µM
 2  CNCc1ccc(-c2c(C)nn(C)c2C)c(NS(=O)(=O)c2ccccc2)c1 [IA-57]  mTRPA1 (Mus musculus)   20 to 50 µM
 3  CC(N)c1ccc(-c2ccco2)c(NS(=O)(=O)c2ccccc2)c1 (centres unmarked) [IU-9]  mTRPA1 (Mus musculus)        < 1 µM
 4  CC(N)c1ccc(N(C)S(=O)(=O)c2ccccc2)c(-c2ccco2)c1 (centres unmarked) [IU-1]  mTRPA1 (Mus musculus)     1 to 5 µM
 5  CNCc1ccc(NS(=O)(=O)c2cccs2)c(-c2ccco2)c1 [IA-29]  mTRPA1 (Mus musculus)        < 1 µM
 6  NCc1ccc(-c2ccco2)c(NS(=O)(=O)c2ccc(F)cc2)c1 [ID-2]  mTRPA1 (Mus musculus)     1 to 5 µM
 7  CNCc1ccc(-c2c(C)n[nH]c2C)c(NS(=O)(=O)c2ccccc2)c1 [IA-58]  mTRPA1 (Mus musculus)  50 to 100 µM
 8  CN(C)Cc1ccc(NS(=O)(=O)c2ccsc2)c(-c2ccco2)c1 [IJ-1]  mTRPA1 (Mus musculus)     1 to 5 µM
 9  O=S(=O)(Nc1cc(/C=N\O)ccc1-c1ccco1)c1ccccc1 [IC-1]  mTRPA1 (Mus musculus)   20 to 50 µM
10  NCc1ccc(-c2ccco2)c(NS(=O)(=O)c2ccccc2)c1 [ID-1]  mTRPA1 (Mus musculus)        < 1 µM
11  CNCc1ccc(-c2cccs2)c(NS(=O)(=O)c2ccccc2)c1 [IA-46]  mTRPA1 (Mus musculus)     1 to 5 µM
12  CNCc1ccc(-c2ccco2)c(NS(=O)(=O)c2ccc3ncsc3c2)c1 [IA-16]  mTRPA1 (Mus musculus)    5 to 10 µM
13  CNCc1ccc(-n2cccc2)c(NS(=O)(=O)c2ccccc2)c1 [IQ-1]  mTRPA1 (Mus musculus)     1 to 5 µM
14  CCCC(N)c1ccc(NS(=O)(=O)c2ccccc2)c(-c2ccco2)c1 (centres unmarked) [IU-4]  mTRPA1 (Mus musculus)        < 1 µM
15  CNCc1ccc(-c2cccs2)c(NS(=O)(=O)c2ccc(F)cc2)c1 [IA-45]  mTRPA1 (Mus musculus)     1 to 5 µM
16  CNCc1ccc(-c2ccco2)c(NS(=O)(=O)c2ccccc2OC)c1 [IA-5]  mTRPA1 (Mus musculus)     1 to 5 µM
17  CNCc1ccc(NS(=O)(=O)c2ccccc2F)c(-c2ccco2)c1 [IA-28]  mTRPA1 (Mus musculus)     1 to 5 µM
18  CNCc1ccc(-c2ccco2)c(NS(=O)(=O)c2ccc3c(c2)CCO3)c1 [IA-15]  mTRPA1 (Mus musculus)     1 to 5 µM
19  CNCc1ccc(-c2ccco2)c(NS(=O)(=O)c2ccc(C(F)(F)F)cc2)c1 [IA-13]  mTRPA1 (Mus musculus)   10 to 20 µM
